Source of measurements: the supplement of paper PMC11208160

Please respond with reported recombinant barcode read abundance (log10) for every item in the list.
- protocol.notes: recombinant barcode read abundance after kanamycin selection (control-corrected) (log10(CPM+1)); higher = more efficient recombination; sequences stand for … in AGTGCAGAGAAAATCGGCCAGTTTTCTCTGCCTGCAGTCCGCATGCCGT…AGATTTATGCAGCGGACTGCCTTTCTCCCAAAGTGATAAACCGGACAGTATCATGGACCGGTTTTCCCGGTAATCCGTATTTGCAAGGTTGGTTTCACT; site = the 11-nt target;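 further: IS621 recombinase and bridge RNA in Escherichia coli cells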
Note: the reply should be a number with no unit written.

INPUT: Which recombinant barcode read abundance (log10) value belongs to CTTAAATCTTGGGTTCTAACCTGTTGCCT (site CTTCAATCTAG) ?
OUTPUT: 0.0867

INPUT: Which recombinant barcode read abundance (log10) value belongs to TAGGCGCCTTGGGTTCTAACCTGTTGCAT (site TAGGCGCCTAG) ?
OUTPUT: 0.0713

INPUT: Which recombinant barcode read abundance (log10) value belongs to GCTTTACCTTGGGTTCTAACCTGTTGCCT (site ACTTTACCTAG) ?
OUTPUT: 0.0836

INPUT: Which recombinant barcode read abundance (log10) value belongs to TTAGTCCCTTGGGTTCTAACCTGTTGCCT (site TTAGTCCCTAG) ?
OUTPUT: 2.42

INPUT: Which recombinant barcode read abundance (log10) value belongs to ATTGGCTCTTGGGTTCTAACCTGTTGCCT (site ATTGGGTCTAG) ?
OUTPUT: 0.0639

INPUT: Which recombinant barcode read abundance (log10) value belongs to TTGTACACTTGGGTTCTAACCTGTTGCTC (site CAACTAGCTAT) ?
OUTPUT: 0.043

INPUT: Which recombinant barcode read abundance (log10) value belongs to GTGTCGCCTTGGGTTCTAACCTGTTGCGT (site GTGTCGCCTAC) ?
OUTPUT: 1.72

INPUT: Which recombinant barcode read abundance (log10) value belongs to CCTACAGCTTGGGTTCTAACCTGTTGCCT (site CCTACACCTAG) ?
OUTPUT: 0.37

INPUT: Which recombinant barcode read abundance (log10) value belongs to CTTAGCTCTTGGGTTCTAACCTGTTGCCT (site CGTAGGTCTAG) ?
OUTPUT: 0.009

INPUT: Which recombinant barcode read abundance (log10) value belongs to ACCGACCCTTGGGTTCTAACCTGTTGCAT (site ACCGACCCTAT) ?
OUTPUT: 1.67

INPUT: Which recombinant barcode read abundance (log10) value belongs to TAGGAGCCTTGGGTTCTAACCTGTTGCGT (site TACGAACCTAC) ?
OUTPUT: 0.323

INPUT: Which recombinant barcode read abundance (log10) value belongs to AAACGACCTTGGGTTCTAACCTGTTGCCT (site AAACGACCTAG) ?
OUTPUT: 1.59

INPUT: Which recombinant barcode read abundance (log10) value belongs to GCAGCCTCTTGGGTTCTAACCTGTTGCGT (site ATGTGAACTCA) ?
OUTPUT: 0.00651

INPUT: Which recombinant barcode read abundance (log10) value belongs to GACATTCCTTGGGTTCTAACCTGTTGCTT (site CTATGAACTTG) ?
OUTPUT: 0.0749

INPUT: Which recombinant barcode read abundance (log10) value belongs to GTCGCTACTTGGGTTCTAACCTGTTGCCG (site GTCTCTACTCG) ?
OUTPUT: 1.35

INPUT: Which recombinant barcode read abundance (log10) value belongs to GTCAACTCTTGGGTTCTAACCTGTTGCCT (site GTAAACTCTAG) ?
OUTPUT: 0.0267

INPUT: Which recombinant barcode read abundance (log10) value belongs to AGTCCTGCTTGGGTTCTAACCTGTTGCCT (site AGTCCTGCTAG) ?
OUTPUT: 0.722

INPUT: Which recombinant barcode read abundance (log10) value belongs to CTCGGAGCTTGGGTTCTAACCTGTTGCCG (site CTCGGAGCTCG) ?
OUTPUT: 0.596

INPUT: Which recombinant barcode read abundance (log10) value belongs to AGGCGTCCTTGGGTTCTAACCTGTTGCCA (site AGGCGTCCTGG) ?
OUTPUT: 0.315

INPUT: Which recombinant barcode read abundance (log10) value belongs to TACCCACCTTGGGTTCTAACCTGTTGCCT (site AACCCACCTAG) ?
OUTPUT: 0.295

INPUT: Which recombinant barcode read abundance (log10) value belongs to TAGTAGTCTTGGGTTCTAACCTGTTGCTT (site TAGTAGTCTAT) ?
OUTPUT: 1.15
